System: Comamonas testosteroni DSM 5416
testMethodNotes: Growth of the strain in culture medium (OD600)
Assay type: cell-based
protocolConditions: inductor 1 g/l + 4 g/l Na acetate; 24 hours
The molecules listed here are annotated with their Growth (OD600).
Kindly answer with a numeric value in OD600, unit omitted.

Here is how some molecules turned out for Growth (OD600).
CC(=O)N[C@@H](C)C(=O)O : 2.28
O=C(CCl)N[C@@H](Cc1ccc(O)cc1)C(=O)O : 2.76
O=C(CCl)N[C@@H](Cc1ccccc1)C(=O)O : 2.89
CSCC[C@H](NC(=O)CCl)C(=O)O : 2.19
CC(=O)N1CCC[C@H]1C(=O)O : 3.46
CC(C)C[C@H](NC(=O)CCl)C(=O)O : 2.65

Turning now to a further record.
Input line: Given the molecule CC(C)[C@H](NC(=O)CCl)C(=O)O , what is its reported Growth (OD600)?
Output line: 2.50

* * *

Test system: 1,10-phenanthroline-inactivated acylase (apoenzyme)
testMethodNotes: Influence of cations on the 1,10-phenanthroline-inactivated acylase
Format: biochemical, Comamonas testosteroni DSM 5416
protocolConditions: 1,10-phenanthroline-inactivated acylase
measurementName: Influence on the apoenzyme (in words)

O=S(=O)([O-])[O-].[Zn+2] : activating action
[Cl][Hg][Cl] : inhibited
[Cl][Sn][Cl] : inhibited
[Cl-].[Cl-].[Co+2] : activating action

Input line: Under 1,10-phenanthroline-inactivated acylase (apoenzyme): Influence on the apoenzyme (in words) value of O=S(=O)([O-])[O-].[Cu+2] ?
Output line: inhibited

* * *

The compounds listed here are annotated with their Activity (%).
System: N-acyl-L-proline acylase
Assay type: biochemical, Comamonas testosteroni DSM 5416
protocolConditions: chemical agent 1 mM; 10 min pre-incubation at 30° C.; no agent = 100
Structures can show the parent of a compound that is named as a salt.
Kindly answer with a numeric value in %, unit omitted.

Here is how some compounds turned out for Activity (%).
O[C@H](CS)[C@H](O)CS (racemic) : 129
NNC(N)=O [Semicarbazide] : 109
c1cnc2c(c1)ccc1cccnc12 : 27
O=C([O-])c1cc[c]([Hg][OH])cc1 [4-hydroxymercuribenzoate] : 88
O=C(O)CC(O)(CC(=O)O)C(=O)O [Na citrate] : 102

Input line: Under N-acyl-L-proline acylase: Activity (%) value of NC(=O)CI [Iodoacetamide] ?
Output line: 104

Input line: Under N-acyl-L-proline acylase: Activity (%) value of O=S(=O)(F)Cc1ccccc1 ?
Output line: 130

Input line: Under N-acyl-L-proline acylase: Activity (%) value of c1ccc(-c2ccccn2)nc1 ?
Output line: 102

Input line: Under N-acyl-L-proline acylase: Activity (%) value of O=C([O-])c1cc[c]([Hg][Cl])cc1 [4-chloromercuribenzoate] ?
Output line: 85

* * *

The compounds listed here are annotated with their Rel. activity (%).
Tested on: N-acyl-L-proline acylase
testMethodNotes: Substrate specificity: hydrolysis of N-acyl amino acids and proline derivatives
Format: biochemical, Comamonas testosteroni DSM 5416
protocolConditions: 20 mM substrate 1.0 ml in 2.0 ml batch, 30° C., pH 7.0; N-acetyl-L-proline = 100%; amino-acid analyzer
Kindly answer with a numeric value in %, unit omitted.

CSCC[C@H](NC(=O)CCl)C(=O)O : 17.1

Input line: Given the compound O=C(CCl)NC1(C(=O)O)CCCCC1 , what is its reported Rel. activity (%)?
Output line: 0

Input line: Given the compound CC(=O)N[C@@H](C)C(=O)O , what is its reported Rel. activity (%)?
Output line: 9.3

Input line: Given the compound O=C(CCl)N[C@@H](Cc1ccccc1)C(=O)O , what is its reported Rel. activity (%)?
Output line: 1.0

Input line: Given the compound O=C(O)[C@@H]1CCCN1C(=O)CCl , what is its reported Rel. activity (%)?
Output line: 362
